Procedure summary: Permeability of compound
Assay type: ADME
Condition label: not told; read-out: permeability
Measured attribute: Papp (×10⁻⁶ cm/s)

Field: example entries. Status: answers known.
Compound	Scale unit	Endpoint result
C[C@H](Oc1ccc(C(=O)N[C@H]2[C@@H]3COC[C@@H]32)cc1-c1cn(C)nn1)c1ccccn1	×10⁻⁶ cm/s	4.2
CCNC(=O)c1cc(Cc2ccc(OC)cc2)nc(-c2cn(C)nn2)c1	×10⁻⁶ cm/s	32
Cn1cc(-c2cc(C(=O)N[C@H]3[C@@H]4COC[C@@H]43)cc(Cc3ccccc3)n2)nn1	×10⁻⁶ cm/s	24
CCNC(=O)c1cc(Cc2ccccc2F)nc(-c2cn(C)nn2)c1	×10⁻⁶ cm/s	30
CCNC(=O)c1ccc(OCc2ncccn2)c(-c2cn(C)nn2)c1	×10⁻⁶ cm/s	3.7

P = Cn1cc(-c2cc(C(=O)NCC[C@H]3CNCCO3)cc(Cc3ccccc3)n2)nn1
Q = CC(=O)Nc1c(F)cc(C(=O)N[C@H]2CC[C@H](O)CC2)cc1O[C@@H](C)c1ccccc1
R = CCNC(=O)c1cc(Cc2cccc(F)c2)nc(-c2cn(C)nn2)c1
S = CCNC(=O)c1ccc(OCc2cccnc2)c(-c2cn(C)nn2)c1
Request: Order the records by Papp, with each subsequent value no larger than the one before. Put the labels in the requested order and list them out.
Result: R, S, P, Q

###

Target desc: Bromodomain-containing protein 4 (Homo sapiens, UniProt O60885, Y97A)
Procedure summary: Inhibition of 6His-Thr-BRD4 (1 to 477 residues) BD1 Y97A mutant (unknown origin) incubated for 30 mins by TR-FRET assay
Measured attribute: IC50 (µM)

Worked examples, 4 molecules total:
Compound	Measured attribute	Scale unit	Endpoint result
CNC(=O)c1ccc(O[C@@H](C)c2ccccn2)c(-c2cn(C)nn2)c1	IC50	µM	10
C[C@H](Oc1ccc(C(=O)NC2CCOCC2)cc1-c1cn(C)nn1)c1ccccn1	IC50	µM	15.8
CCNC(=O)c1ccc(O[C@H](C)c2ccccc2)c(-c2cn(C)nn2)c1	IC50	µM	39.8
Cc1cc(-c2ccccc2OCc2ccccc2)on1	IC50	µM	10

A = CCNC(=O)c1ccc(OCc2ccccc2OC)c(-c2cn(C)nn2)c1
B = C[C@H](Oc1ccc(C(=O)N[C@H]2CC[C@H](O)CC2)cc1-c1cn(C)nn1)c1ccccn1
C = Cn1cc(-c2cc(C(=O)N[C@H]3[C@@H]4COC[C@@H]43)cc(Cc3ccccc3)n2)nn1
D = CCNC(=O)c1ccc(OCc2ccccc2)c(-c2cn(C)nn2)c1
E = Cc1cn(-c2ccccc2OCc2ccccc2)nn1
Request: Hey, quick one: sort these by IC50, low to high? The labels, placed in the requested order, form the answer.
Result: C, B, D, A, E
(C: 5.01 µM, B: 7.94 µM, D: 12.6 µM, A: 20 µM, E: 31.6 µM)

I = CCNC(=O)c1cc(Cc2ccc(F)cc2)nc(-c2cn(C)nn2)c1
II = CCNC(=O)c1ccc(O[C@@H](C)c2ccccc2)c(-c2cn(C)nn2)c1
III = Cn1cc(-c2cc(C(N)=O)cc(Cc3ccccc3)n2)nn1
Request: Order field: IC50 | Direction: descending (largest first) Reply: labels, ordered per the request.
Result: I, III, II
(I: 20 µM, III: 12.6 µM, II: 3.98 µM)

P = CCNC(=O)c1cc(Cc2ccccc2F)nc(-c2cn(C)nn2)c1
Q = C[C@H](Oc1ccc(C(=O)NC2CC2)cc1-c1cn(C)nn1)c1ccccn1
Request: // task: argmin of IC50 over [ P , Q ] Write down the label of the entry you select.
Result: Q
